Test system: 855422-203-R-J1-PDC complex spheroids, viability;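 note: spheroids exposed to drugs for seven days before readout; 100% = DMSO vehicle control wells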
Test: Anticancer human tumor 855422-203-R-J1-PDC patient-derived bladder carcinoma cell line growth inhibition [CLK]
Conditions: second compound 0.0316 µM; first compound 0.003 µM; hits give low values
Source text: A high-throughput screen of multi-cell type tumor spheroids was designed to identify active combinations of […] and targeted small molecules. Complex spheroids include a stromal component modeled by human endothelial cells (HUVEC) and fibroblasts modeled by human mesenchymal stem cells (MSCs). […] Compounds. […] If the clinical Cmax for an agent had not been determined, the highest concentration tested was 10 microM. […]
measured parameter: viability, T/C (%)

CC(C)CC(NC(=O)C(Cc1ccccc1)NC(=O)c1cnccn1)B(O)O (centres undefined) + CN1CCN(c2cc(C(=O)Nc3cc4cc(-c5cnn(C)c5)ccc4cn3)ccn2)CC1 = 0.31
C=CC(=O)Nc1cc(Nc2nccc(-c3cn(C)c4ccccc34)n2)c(OC)cc1N(C)CCN(C)C + CN1CCN(c2cc(C(=O)Nc3cc4cc(-c5cnn(C)c5)ccc4cn3)ccn2)CC1 = 88.3
C=CC(=O)Nc1cc(Nc2nccc(-c3cn(C)c4ccccc34)n2)c(OC)cc1N(C)CCN(C)C + CNC(=O)c1ccc(Nc2nc(OC3CCCC3)c3c(-c4ccc5nc(C)oc5c4)c[nH]c3n2)c(OC)c1 = 112
CC(C)CC(NC(=O)C(Cc1ccccc1)NC(=O)c1cnccn1)B(O)O (centres undefined) + CNC(=O)c1ccc(Nc2nc(OC3CCCC3)c3c(-c4ccc5nc(C)oc5c4)c[nH]c3n2)c(OC)c1 = 0.22
